assay: qHTS assay to identify small molecule antagonists of the retinoid-related orphan receptor gamma (ROR-gamma) signaling pathway - cell viability counter screen (AID 1159520); conditions: Tet-on RORgamma CHO cells viability, ATP luminescence, 16 h; series mostly up to 92.4 µM; note: nearly all actives have a fitted effect of over 50% in size
Records with an inconclusive call do not appear. The source made the active and inactive calls. Calls come from the whole dose curve; as a rule, active = well fitted cell-killing curve with a large enough effect in the repeat runs; inconclusive = weak or mixed curves, or effect the other way; inactive = no such curve, though single readings can be large or run the other way.
Outcomes: T = active, F = inactive

compound=Nc1ccc(N=Nc2ccc(-c3ccc(N=Nc4c(S(=O)(=O)O)cc5cc(S(=O)(=O)O)c(N=Nc6ccccc6)c(O)c5c4N)cc3)cc2)c(N)c1 class_name=T
compound=CCOc1ccc(C(C)(C)COCc2cccc(Oc3ccccc3)c2)cc1 class_name=F
compound="CC1Sc2c(C(=O)O)c(=O)c3cc(F)c(N4CCNCC4)cc3n21 (stereo not given)" class_name=F
compound=CC(=O)CCC(C)=O class_name=F
compound=CCO[C@H]1O[C@@H]2OC3(C)CC[C@H]4[C@H](C)CC[C@@H]([C@H]1C)[C@@]24OO3 class_name=F
compound=O=[N+]([O-])C(Br)(CO)CO class_name=T
compound="O=C(O)CC(Cl)C(=O)O (stereo not given)" class_name=F
compound=C=CC(=O)OCCCCO class_name=F
compound=Cl/C=C\Cl class_name=F
compound=CCCN(CC1CC1)c1c([N+](=O)[O-])cc(C(F)(F)F)cc1[N+](=O)[O-] class_name=F
compound=C=CCOC(C)=O class_name=F
compound=O=C(CBr)c1ccccc1 class_name=F
compound=O=C(O)c1ccccc1C(=O)Nc1cccc2ccccc12 class_name=F
compound=O=C1c2ccccc2C(=O)C1C(=O)C(c1ccccc1)c1ccccc1 class_name=F
compound=C=CCC1([C@H](C)CCC)C(=O)NC(=O)NC1=O class_name=F
compound=O=NN1CCNCC1 class_name=F
compound=C/C=C/C=O class_name=F
compound=CC(=O)C(C)(C)C class_name=F
compound="COCC(C)N(C(=O)CCl)c1c(C)csc1C (stereo not given)" class_name=F
compound=CCOC(=O)COc1cc(-c2nn(C)c(OC(F)F)c2Cl)c(F)cc1Cl class_name=F
compound=IC(I)=C(I)I class_name=T
compound="C=CC(=O)OCC(C)O (stereo not given)" class_name=F
compound=COP(=S)(OC)Oc1ccc([N+](=O)[O-])cc1Cl class_name=F
compound=c1ccoc1 class_name=F
compound=CC(=O)[C@H]1CC[C@H]2[C@@H]3CC[C@H]4C[C@](C)(O)CC[C@]4(C)[C@H]3CC[C@]12C class_name=F
compound="CC(C)(C)C(O)C(Oc1ccc(Cl)cc1)n1cncn1 (stereo not given)" class_name=F
compound=CCCCc1c(C)nc(NCC)nc1OS(=O)(=O)N(C)C class_name=F
compound=Clc1cc(C(Cl)(Cl)Cl)cnc1Cl class_name=F
compound=CC(C)(Cl)[N+](=O)[O-] class_name=F
compound=Clc1cc(Cl)c(Cl)c(Cl)c1 class_name=F
compound=COCCOCCO class_name=F
compound=CCCCCCCCCCOC(=O)c1ccccc1C(=O)OCCCCCCCCCC class_name=F
compound="Cc1c(F)c(F)c(COC(=O)C2C(/C=C(\\Cl)C(F)(F)F)C2(C)C)c(F)c1F (stereo not given)" class_name=F
compound=CCCN(CCC)c1c([N+](=O)[O-])cc(S(C)(=O)=O)cc1[N+](=O)[O-] class_name=F
compound="CC/C(=N\\OC/C=C/Cl)C1=C(O)CC(C2CCOCC2)CC1=O (stereo not given)" class_name=F
compound=C=CC(=O)OC class_name=F
compound=C=C(C#N)CCC#N class_name=F
compound="COC(=O)c1cncn1C(C)c1ccccc1 (stereo not given)" class_name=F
compound=ClCCCCBr class_name=F
compound=BrCCCCBr class_name=F
compound=NNC(=O)c1cccnc1 class_name=F
compound=CC(C)N(C(=O)COc1nnc(C(F)(F)F)s1)c1ccc(F)cc1 class_name=F
compound=CCOC(=O)CBr class_name=F
compound=COc1c(C(C)(C)C)cc([N+](=O)[O-])c(C)c1[N+](=O)[O-] class_name=F
compound=Cc1cc(=O)[nH]o1 class_name=F
compound=C=CC(=O)OC(C)(C)C class_name=F
compound="CCC(COC(=O)c1cc(OC)c(OC)c(OC)c1)(c1ccccc1)N(C)C (stereo not given)" class_name=F
compound=CC(c1ccc(O)cc1)(c1ccc(O)cc1)c1ccc(O)cc1 class_name=F
compound="COC(=O)C(C)N(C(=O)Cc1ccccc1)c1c(C)cccc1C (stereo not given)" class_name=F
compound="O=S1OC[C@@H]2[C@H](CO1)[C@]1(Cl)C(Cl)=C(Cl)[C@@]2(Cl)C1(Cl)Cl (stereo not given in full)" class_name=F
compound="Clc1ccc(C2(Cn3cncn3)CC(Br)CO2)c(Cl)c1 (stereo not given)" class_name=F
compound=Cn1sc(Cl)cc1=O class_name=T
compound=O=NN1CCCCCC1 class_name=F
compound=O=S(=O)(O)C(F)(F)C(F)(F)C(F)(F)C(F)(F)F class_name=F
compound=CCOS(C)(=O)=O class_name=F
